Parameter polymerase ribozyme fitness (log ratio): see the listing below.
B1: TPR 5TU (parent)
chain: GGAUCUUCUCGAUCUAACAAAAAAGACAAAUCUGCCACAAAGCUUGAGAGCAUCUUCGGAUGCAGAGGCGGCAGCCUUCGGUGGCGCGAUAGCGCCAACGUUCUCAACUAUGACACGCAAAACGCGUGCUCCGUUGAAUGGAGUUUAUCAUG

Variants of: B1
Test: polymerase ribozyme fitness, log enrichment relative to wild type (log ratio); higher = more active; in vitro selection for triplet polymerase activity
Variants at the floor of the assay were thinned out.

{"mut": "A30U G70A G143C", "polymerase ribozyme fitness (log ratio)": "≤ -4.2"}
{"mut": "A29U U45A G70A C85G", "polymerase ribozyme fitness (log ratio)": "≤ -4.2"}
{"mut": "C14G G50C A66G C85G A106G", "polymerase ribozyme fitness (log ratio)": "≤ -4.2"}
{"mut": "U6A G11A A64C C72U C87U A120G C149A", "polymerase ribozyme fitness (log ratio)": "≤ -4.2"}
{"mut": "A26U", "polymerase ribozyme fitness (log ratio)": -1.21}
{"mut": "G128A G133A U134C A150G", "polymerase ribozyme fitness (log ratio)": -3.52}
{"mut": "C32A C85U A142U", "polymerase ribozyme fitness (log ratio)": "≤ -4.2"}
{"mut": "C57G U77C G84A U134A", "polymerase ribozyme fitness (log ratio)": "≤ -4.2"}
{"mut": "G83C U90C A107C C116A U127C A150C", "polymerase ribozyme fitness (log ratio)": "≤ -4.2"}
{"mut": "A40C G92C", "polymerase ribozyme fitness (log ratio)": -1.84}
{"mut": "A60G G80C G140A G141U", "polymerase ribozyme fitness (log ratio)": "≤ -4.2"}
{"mut": "A20U A40U U56A C96A G141C", "polymerase ribozyme fitness (log ratio)": -2.73}
{"mut": "A49G G50A C95U U145C", "polymerase ribozyme fitness (log ratio)": -2.54}
{"mut": "G83A A97C U104A G136A", "polymerase ribozyme fitness (log ratio)": -1.39}
{"mut": "A23U C93A", "polymerase ribozyme fitness (log ratio)": "≤ -4.2"}
{"mut": "A3U A28C U55G U56G C63G G86C A91C", "polymerase ribozyme fitness (log ratio)": "≤ -4.2"}
{"mut": "A40C G42A A49G G62C C93A", "polymerase ribozyme fitness (log ratio)": "≤ -4.2"}
{"mut": "A52G U56G C85A C131U A137G", "polymerase ribozyme fitness (log ratio)": -3.95}
{"mut": "G48A G50A U56G U148C", "polymerase ribozyme fitness (log ratio)": "≤ -4.2"}
{"mut": "U4C C57A C95A C96U G141A", "polymerase ribozyme fitness (log ratio)": -3.87}
{"mut": "C69A U101G G126A", "polymerase ribozyme fitness (log ratio)": -0.681}
{"mut": "A49C U53A G86U A115G", "polymerase ribozyme fitness (log ratio)": "≤ -4.2"}
{"mut": "G46A C85A", "polymerase ribozyme fitness (log ratio)": -2.16}
{"mut": "U15G C132A", "polymerase ribozyme fitness (log ratio)": -2.26}
{"mut": "C51G C79G G86U C114U U134A", "polymerase ribozyme fitness (log ratio)": "≤ -4.2"}
{"mut": "G58U U135C", "polymerase ribozyme fitness (log ratio)": -1.62}
{"mut": "A28C G42C C76G C79G G86C U90G A97G U145C", "polymerase ribozyme fitness (log ratio)": "≤ -4.2"}
{"mut": "C18U A29U A52C C93A C125G U144A A147U", "polymerase ribozyme fitness (log ratio)": "≤ -4.2"}
{"mut": "G84A A98G C105A", "polymerase ribozyme fitness (log ratio)": -1.05}
{"mut": "C38G A120U G140C A142C", "polymerase ribozyme fitness (log ratio)": "≤ -4.2"}
{"mut": "C8U C57U A60C A97U A115U", "polymerase ribozyme fitness (log ratio)": "≤ -4.2"}
{"mut": "A119C", "polymerase ribozyme fitness (log ratio)": -0.385}
{"mut": "A26C G88U G92U G117U", "polymerase ribozyme fitness (log ratio)": "≤ -4.2"}
{"mut": "C93U A106C", "polymerase ribozyme fitness (log ratio)": -1.75}
{"mut": "G67U C87U", "polymerase ribozyme fitness (log ratio)": -3.88}
{"mut": "A24G U55G", "polymerase ribozyme fitness (log ratio)": -3.78}
{"mut": "A21C G25A C63G", "polymerase ribozyme fitness (log ratio)": -3.29}
{"mut": "A16G U31G A49U", "polymerase ribozyme fitness (log ratio)": "≤ -4.2"}
{"mut": "G11U A66C C76U U90G U102G U148G", "polymerase ribozyme fitness (log ratio)": "≤ -4.2"}
{"mut": "A23C C36U A60C G86A A121U", "polymerase ribozyme fitness (log ratio)": "≤ -4.2"}
{"mut": "U55A U78C C123G", "polymerase ribozyme fitness (log ratio)": -0.403}
{"mut": "C96A A120U G140U", "polymerase ribozyme fitness (log ratio)": -3.09}
{"mut": "A20C U90G C99U G136C", "polymerase ribozyme fitness (log ratio)": "≤ -4.2"}
{"mut": "C93U U135A", "polymerase ribozyme fitness (log ratio)": -2.01}
{"mut": "A22U U144A", "polymerase ribozyme fitness (log ratio)": 0.777}
{"mut": "A64C A115U A142U G143U", "polymerase ribozyme fitness (log ratio)": "≤ -4.2"}
{"mut": "C27U U61G A64U C96U", "polymerase ribozyme fitness (log ratio)": "≤ -4.2"}
{"mut": "C10G U109C A137C", "polymerase ribozyme fitness (log ratio)": "≤ -4.2"}
{"mut": "G11U A40C G70C C103G", "polymerase ribozyme fitness (log ratio)": "≤ -4.2"}
{"mut": "A39C U56A G59C", "polymerase ribozyme fitness (log ratio)": -2.08}
{"mut": "A52C G84U C96U U144A", "polymerase ribozyme fitness (log ratio)": "≤ -4.2"}
{"mut": "A12U C87A", "polymerase ribozyme fitness (log ratio)": -4.15}
{"mut": "C8A G48C U55A", "polymerase ribozyme fitness (log ratio)": "≤ -4.2"}
{"mut": "C43A U44G A64C C118G C131G A137G G152U", "polymerase ribozyme fitness (log ratio)": "≤ -4.2"}
{"mut": "G50A U90C C96G A115U", "polymerase ribozyme fitness (log ratio)": "≤ -4.2"}
{"mut": "C57U G126C", "polymerase ribozyme fitness (log ratio)": 0.553}
{"mut": "A37C C96G U101G A150C U151A", "polymerase ribozyme fitness (log ratio)": "≤ -4.2"}
{"mut": "G83C C105G G126A", "polymerase ribozyme fitness (log ratio)": -2.8}
{"mut": "G59C C69A G133C", "polymerase ribozyme fitness (log ratio)": -1.75}
{"mut": "A21G G92C", "polymerase ribozyme fitness (log ratio)": 0.365}
{"mut": "A19U C96G A122U", "polymerase ribozyme fitness (log ratio)": -0.445}
{"mut": "A19U A89U G136U", "polymerase ribozyme fitness (log ratio)": -3.55}
{"mut": "A22U C54U G92U A147U", "polymerase ribozyme fitness (log ratio)": 0.944}
{"mut": "C38U A40U C116U U135A", "polymerase ribozyme fitness (log ratio)": 0.399}
{"mut": "C96U U151G", "polymerase ribozyme fitness (log ratio)": -4.05}
{"mut": "A17G C93G", "polymerase ribozyme fitness (log ratio)": -2.89}
{"mut": "C54U C76U C85G", "polymerase ribozyme fitness (log ratio)": -1.18}
{"mut": "A41C U61A G143C", "polymerase ribozyme fitness (log ratio)": -3.94}
{"mut": "A37G U61A G141C U148C", "polymerase ribozyme fitness (log ratio)": "≤ -4.2"}
{"mut": "U15G G94C C96U U111A G152A", "polymerase ribozyme fitness (log ratio)": "≤ -4.2"}
{"mut": "U61C A73U A91U", "polymerase ribozyme fitness (log ratio)": "≤ -4.2"}
{"mut": "A41U A73U", "polymerase ribozyme fitness (log ratio)": -1.65}
{"mut": "A22U A52C G65A C132G G140U", "polymerase ribozyme fitness (log ratio)": -3.17}
{"mut": "A52C U53A", "polymerase ribozyme fitness (log ratio)": -3.29}
{"mut": "G42C A60U G67C G128U A138U", "polymerase ribozyme fitness (log ratio)": "≤ -4.2"}
{"mut": "A39U C79G G84U", "polymerase ribozyme fitness (log ratio)": "≤ -4.2"}
{"mut": "A19C A60C U102G U109G U151G", "polymerase ribozyme fitness (log ratio)": "≤ -4.2"}
{"mut": "U55G U134C G143U", "polymerase ribozyme fitness (log ratio)": -1.98}
{"mut": "C5U A37U C69U C95U", "polymerase ribozyme fitness (log ratio)": -1.02}
{"mut": "C14A C38A C93G", "polymerase ribozyme fitness (log ratio)": "≤ -4.2"}
{"mut": "C8U U82G C87A", "polymerase ribozyme fitness (log ratio)": "≤ -4.2"}
{"mut": "U45A U77A C87U U90G G92C G126A A138G", "polymerase ribozyme fitness (log ratio)": "≤ -4.2"}
{"mut": "G25U A39U U53A C76G U145A", "polymerase ribozyme fitness (log ratio)": "≤ -4.2"}
{"mut": "G59U C85U A150U", "polymerase ribozyme fitness (log ratio)": 1.1}
{"mut": "C14G U56A C85G G92A", "polymerase ribozyme fitness (log ratio)": "≤ -4.2"}
{"mut": "C18U A60G U82A G141C", "polymerase ribozyme fitness (log ratio)": -0.334}
{"mut": "C54G G83C A97U A98U", "polymerase ribozyme fitness (log ratio)": -2.8}

Source: the RNAGym collection of RNA variant scans (doi:10.1073/pnas.2313332121)
